Where these numbers come from: paper PMC6792352

# Assay text: in vitro
# Test settings: rat, gh3-tre-luc cells, AC50 (uM) modified / 1000, Tox21_110001=Tox21_112051; viability, 1 nM T3 present, 24 h

>  <Compound structure string>
C[C@H](N)[C@H](O)c1ccc(O)c(O)c1

>  <CC50 at 24 h (µM)>
22

$$$$

----------
Recorded CC50 at 24 h by entry
# Assay text: in vitro
# Test settings: rat, gh3-tre-luc cells, AC50 (uM) modified / 1000
Where a name gives a salt, the structure may show the parent alone.
Quantity: CC50 at 24 h

>  <Compound>
c1ccc2cnncc2c1

>  <Result>
> 90 µM

$$$$
>  <Compound>
O=C(O)CO

>  <Result>
> 90 µM

$$$$
>  <Compound>
O=c1[nH]ncc2ccccc12

>  <Result>
> 90 µM

$$$$
>  <Compound>
Nc1ccn([C@H]2CC[C@@H](CO)O2)c(=O)n1

>  <Result>
> 50 µM

$$$$
>  <Compound>
CCCCNC(=S)NCCCC

>  <Result>
> 90 µM

$$$$
>  <Compound>
CC(=O)c1ccc2ccc3ccccc3c2c1

>  <Result>
> 90 µM

$$$$
>  <Compound>
CC(COCCO)OCCO (stereo not shown)

>  <Result>
> 80 µM

$$$$
>  <Compound>
CCCCCCOC(=O)CC(CC(=O)OCCCCCC)(OC(=O)CCC)C(=O)OCCCCCC [Butyryl trihexyl citrate]

>  <Result>
> 90 µM

$$$$
>  <Compound>
CC(C)(C)c1ccc2c(S(=O)(=O)O)c(C(C)(C)C)ccc2c1 [Sodium dibunate]

>  <Result>
> 50 µM

$$$$
>  <Compound>
O=C(c1ccc(O)cc1)c1ccc(Cl)cc1 [4-Hydroxy-4'-chlorobenzophenone]

>  <Result>
> 90 µM

$$$$

----------
# Assay text: in vitro
# Test settings: rat, gh3-tre-luc cells, AC50 (uM) modified / 1000, Tox21_110001=Tox21_200191; viability, 1 nM T3 present, 24 h

>  <Compound>
CN(C)c1ccc(N)cc1 [N,N-Dimethyl-p-phenylenediamine]

>  <CC50 at 24 h, µM>
59.3

$$$$

----------
# Assay text: in vitro
# Test settings: rat, gh3-tre-luc cells, AC50 (uM) modified / 1000, Tox21_110001=Tox21_202896; viability, 1 nM T3 present, 24 h

>  <Compound>
O=C/C=C/c1ccco1 [(E)-3-(2-Furyl)acrolein]

>  <CC50 at 24 h>
> 90 µM

$$$$

----------
Overview of recorded Active in global cytotoxicity assays (%) for various compounds
# Tested on: Tox21 cell viability assays (different cell types)
# Assay text: Global cytotoxicity: eighteen Tox21 cell viability assays
# Type: cell-based
Quantity: Active in global cytotoxicity assays (%)

>  <Compound>
Cc1cccc(Nc2ccccc2C(=O)O)c1C [Mefenamic acid]

>  <Experimental system>
Tox21 cell viability assays (different cell types)

>  <Measured number>
4.5

$$$$
>  <Compound>
COC(=O)C[C@](O)(CCCC(C)(C)O)C(=O)O[C@@H]1C(OC)=C[C@]23CCCN2CCc2cc4c(cc2[C@H]13)OCO4 [Omacetaxine mepesuccinate]

>  <Experimental system>
Tox21 cell viability assays (different cell types)

>  <Measured number>
60.0

$$$$
>  <Compound>
CC[C@H]1OC(=O)C[C@@H](O)[C@H](C)[C@@H](O[C@@H]2O[C@H](C)C[C@H](N(C)C)[C@H]2O)[C@@H](CC=O)C[C@@H](C)C(=O)/C=C/[C@]2(C)O[C@H]2[C@@H]1C [Rosaramicin]

>  <Experimental system>
Tox21 cell viability assays (different cell types)

>  <Measured number>
46.7

$$$$
